Test system: Streptococcus agalactiae
Test: Antibacterial activity against Streptococcus agalactiae clinical isolate by broth microdilution method
Assay type: functional
assay metric: MIC90 (µg/mL)
Hi! Could you send only the number? It should be in µg/mL, unit omitted.

Answered cases to consult:
* CC(=O)NC[C@H]1CN(c2ccc(N3CCOCC3)c(F)c2)C(=O)O1 | 1
* CCCCCCCCCCNCCN[C@@]1(C)C[C@H](O[C@H]2[C@H](Oc3c4cc5cc3Oc3ccc(cc3Cl)[C@@H](O)[C@@H](NC(=O)[C@@H](CC(C)C)NC)C(=O)N[C@@H](CC(N)=O)C(=O)N[C@H]5C(=O)N[C@H]3C(=O)N[C@H](C(=O)N[C@H](C(=O)O)c5cc(O)c(CNCP(=O)(O)O)c(O)c5-c5cc3ccc5O)[C@H](O)c3ccc(c(Cl)c3)O4)O[C@H](CO)[C@@H](O)[C@@H]2O)O[C@@H](C)[C@H]1O | 0.06

Please turn your attention to the following entry.
Which MIC90 is listed for CN[C@H](CC(C)C)C(=O)N[C@H]1C(=O)N[C@@H](CC(N)=O)C(=O)N[C@H]2C(=O)N[C@H]3C(=O)N[C@H](C(=O)N[C@H](C(=O)O)c4cc(O)cc(O)c4-c4cc3ccc4O)[C@H](O)c3ccc(c(Cl)c3)Oc3cc2cc(c3O[C@@H]2O[C@H](CO)[C@@H](O)[C@H](O)[C@H]2O[C@H]2C[C@](C)(N)[C@H](O)[C@H](C)O2)Oc2ccc(cc2Cl)[C@H]1O ?
0.5

---

Test system: Streptococcus pyogenes
Assay: Antibacterial activity against Streptococcus pyogenes clinical isolate by broth microdilution method
Type: functional
assay metric: MIC90 (µg/mL)
Reply numerically in µg/mL, unit not repeated.

- CCCCCCCCCCNCCN[C@@]1(C)C[C@H](O[C@H]2[C@H](Oc3c4cc5cc3Oc3ccc(cc3Cl)[C@@H](O)[C@@H](NC(=O)[C@@H](CC(C)C)NC)C(=O)N[C@@H](CC(N)=O)C(=O)N[C@H]5C(=O)N[C@H]3C(=O)N[C@H](C(=O)N[C@H](C(=O)O)c5cc(O)c(CNCP(=O)(O)O)c(O)c5-c5cc3ccc5O)[C@H](O)c3ccc(c(Cl)c3)O4)O[C@H](CO)[C@@H](O)[C@@H]2O)O[C@@H](C)[C@H]1O: 0.06
- CCCCCCCCCC(=O)N[C@@H](Cc1c[nH]c2ccccc12)C(=O)N[C@H](CC(N)=O)C(=O)N[C@@H](CC(=O)O)C(=O)N[C@@H]1C(=O)NCC(=O)N[C@@H](CCCN)C(=O)N[C@@H](CC(=O)O)C(=O)N[C@H](C)C(=O)N[C@@H](CC(=O)O)C(=O)NCC(=O)N[C@H](CO)C(=O)N[C@@H]([C@H](C)CC(=O)O)C(=O)N[C@@H](CC(=O)c2ccccc2N)C(=O)O[C@@H]1C: 0.06
- C[C@H]1COc2c(N3CCN(C)CC3)c(F)cc3c(=O)c(C(=O)O)cn1c23.C[C@H]1COc2c(N3CCN(C)CC3)c(F)cc3c(=O)c(C(=O)O)cn1c23.O: 1

# ---- query compound ----
Using the record for CN[C@H](CC(C)C)C(=O)N[C@H]1C(=O)N[C@@H](CC(N)=O)C(=O)N[C@H]2C(=O)N[C@H]3C(=O)N[C@H](C(=O)N[C@H](C(=O)O)c4cc(O)cc(O)c4-c4cc3ccc4O)[C@H](O)c3ccc(c(Cl)c3)Oc3cc2cc(c3O[C@@H]2O[C@H](CO)[C@@H](O)[C@H](O)[C@H]2O[C@H]2C[C@](C)(N)[C@H](O)[C@H](C)O2)Oc2ccc(cc2Cl)[C@H]1O , report its MIC90.
0.5

---

System: Streptococcus agalactiae
Assay: Antibacterial activity against Streptococcus agalactiae clinical isolate by broth microdilution method
Format: functional
assay metric: MIC90 (µg/mL)
Report the figure in µg/mL without appending any unit label.

- C[C@H]1COc2c(N3CCN(C)CC3)c(F)cc3c(=O)c(C(=O)O)cn1c23.C[C@H]1COc2c(N3CCN(C)CC3)c(F)cc3c(=O)c(C(=O)O)cn1c23.O [LEVOFLOXACIN]: 1

Please state recorded MIC90 (tested on Streptococcus agalactiae) of CCCCCCCCCC(=O)N[C@@H](Cc1c[nH]c2ccccc12)C(=O)N[C@H](CC(N)=O)C(=O)N[C@@H](CC(=O)O)C(=O)N[C@@H]1C(=O)NCC(=O)N[C@@H](CCCN)C(=O)N[C@@H](CC(=O)O)C(=O)N[C@H](C)C(=O)N[C@@H](CC(=O)O)C(=O)NCC(=O)N[C@H](CO)C(=O)N[C@@H]([C@H](C)CC(=O)O)C(=O)N[C@@H](CC(=O)c2ccccc2N)C(=O)O[C@@H]1C
0.25
